Tested on: Escherichia coli
Test: Antibacterial activity against Escherichia coli (ATCC 25922) at concentration 2.0 uM/ml in dimethylformamide, + = resistant
Assay type: functional, organism-based
ASSAY READOUT: MIC

CC1(C)S[C@@H]2[C@H](NC(=O)[C@H](N)c3ccccc3)C(=O)N2[C@H]1C(=O)O = Resistant
N#CC1=C(N)Oc2ccc3ccccc3c2C1c1ccccc1 (stereo not drawn) = Resistant
N#CC1=C(N)Oc2ccc3ccccc3c2C1c1ccc2c(c1)OCO2 (stereo not drawn) = Resistant

====

Test system: Escherichia coli
Test: Antibacterial activity against Escherichia coli (ATCC 25922) at concentration 2.0 uM/ml in dimethylformamide, + = resistant
Type: functional, organism-based
ASSAY READOUT: MIC

Consider the reported MIC for these compounds:
N#CC1=C(N)Oc2ccc3ccccc3c2C1n1ccc2ccccc21 (stereo unspecified) = Resistant
N#CC1=C(N)Oc2ccc3ccccc3c2C1c1cc2ccccc2nc1Cl (stereo unspecified) = Resistant
N#CC1=C(N)Oc2cc(O)ccc2C1c1ccc2c(c1)OCO2 (stereo unspecified) = Resistant
N#CC1=C(N)Oc2cc(O)ccc2C1c1cc2ccccc2nc1Cl (stereo unspecified) = Resistant
N#CC1=C(N)Oc2cc(O)ccc2C1c1ccccc1 (stereo unspecified) = Resistant

Note: attention shifts to another entry.
// sample N#CC1=C(N)Oc2cc(O)ccc2C1n1ccc2ccccc21 (stereo unspecified) , its MIC was Resistant
